Biological target: LXRβ (Homo sapiens)
Construct: Co-transfection expression plasmids, comprising full-length LXRα (pCMX-h LXRα or LXRβ (pCMX-hLXRβ))
Sequence (P55055 1-460): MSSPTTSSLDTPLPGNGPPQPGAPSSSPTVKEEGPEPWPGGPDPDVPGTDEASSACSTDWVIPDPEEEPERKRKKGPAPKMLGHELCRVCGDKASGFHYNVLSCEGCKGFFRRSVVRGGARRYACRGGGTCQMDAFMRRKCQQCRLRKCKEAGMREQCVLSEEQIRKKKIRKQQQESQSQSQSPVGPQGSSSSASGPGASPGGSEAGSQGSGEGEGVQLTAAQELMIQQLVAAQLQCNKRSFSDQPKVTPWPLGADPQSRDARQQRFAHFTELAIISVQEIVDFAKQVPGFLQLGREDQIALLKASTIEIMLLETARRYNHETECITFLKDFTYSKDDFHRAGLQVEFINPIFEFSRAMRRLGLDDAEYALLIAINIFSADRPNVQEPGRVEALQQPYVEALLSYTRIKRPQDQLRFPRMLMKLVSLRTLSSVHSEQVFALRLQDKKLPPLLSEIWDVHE
Sequence (P19793 1-462 partner): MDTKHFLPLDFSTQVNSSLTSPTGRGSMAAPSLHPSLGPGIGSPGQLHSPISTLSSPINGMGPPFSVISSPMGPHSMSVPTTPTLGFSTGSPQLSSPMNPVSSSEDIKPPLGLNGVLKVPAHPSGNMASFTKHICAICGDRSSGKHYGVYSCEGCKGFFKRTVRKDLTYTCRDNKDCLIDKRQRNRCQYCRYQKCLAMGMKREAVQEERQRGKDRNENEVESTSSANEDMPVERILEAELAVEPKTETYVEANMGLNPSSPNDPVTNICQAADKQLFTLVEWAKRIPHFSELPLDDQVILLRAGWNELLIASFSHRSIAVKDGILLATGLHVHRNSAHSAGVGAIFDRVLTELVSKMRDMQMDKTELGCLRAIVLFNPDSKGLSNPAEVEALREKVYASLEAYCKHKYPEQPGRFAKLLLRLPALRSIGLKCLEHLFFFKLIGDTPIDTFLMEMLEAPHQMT
Assay: LXR/LXRE co-transfection assay (luciferase reporter) in CV-1 cells, LXRβ
Conditions: CV-1 cells transfected with pCMX-hLXRβ and LXREx1-Tk-Luciferase, 20 hours incubation, read-out: LXRbeta agonism EC50
Measurement Kind: EC50 (nM)

Cn1nc(C(F)(F)CO)cc1-c1ccc(-c2cccc(S(C)(=O)=O)c2)cc1-n1nncc1-c1ccc(OC(F)(F)F)cc1; 1020

(I) Cc1cc(C(F)(F)F)n(-c2ccc(-c3cccc(S(C)(=O)=O)c3)cc2-c2nc(C)oc2-c2ccc(OC(F)F)cc2)n1
(II) Cc1nc(-c2ccc(Cl)c(OC(F)F)c2)c(-c2cc(-c3cc(F)c(CO)c(S(C)(=O)=O)c3)ccc2-n2ccc(C(F)(F)F)n2)o1
Could you please tell me which of these two has the higher EC50: I or II ? Identify your pick by its label.
I
